- Tested on: Candida albicans
- assay-explanation: Microplate dilution assay MIC/MLC
- Format: cell-based
- measurement-setup: growth less than 10% of control
quantity: MIC < 10% (Weight percent)
Use Weight percent as the unit, but write only the number.

API: value(readout= MIC < 10%, system= Candida albicans, query= Oc1cc(Cl)ccc1Oc1ccc(Cl)cc1Cl )
0.0016

And the next one, CCCCCCCCCCCC[N+](C)(C)Cc1ccccc1.[Cl-] ?
0.0016

And the next one, CCCCC(CC)CC(CC)C[N+](C)(C)Cc1ccccc1.[Cl-] (stereo not shown) ?
0.0063

And the next one, Cc1cc(O)cc(C)c1Cl ?
0.0083

Ref: patent US20190218170A1
